For each entry below, report its Activity value.
- System: Mus musculus
- assay.details: Analgesic activity in OF1 mouse assessed as decrease in hindpaw licking at 50 mg/kg ,po administered 150 mins prior to formalin challenge by formalin test
- Assay type: functional
- Design: scale not given: the % may be the effect or the level left
Field format: number, assumed %, no unit text.

Ask: What value of measured Activity is listed for CC(OC(=O)N[C@@H](CC[S+](C)[O-])CSSCC1(C(=O)N[C@@H](CC(=O)O)C(=O)O)CCCC1)OC(=O)C(C)C (stereo partly drawn) ?
Reply: 47

Ask: What value of measured Activity is listed for CSCC[C@@H](CSSC[C@@H](Cc1ccccc1)C(=O)NCC(=O)O)NC(=O)OC(C)OC(=O)C(C)C (stereo partly drawn) ?
Reply: 31

Ask: What value of measured Activity is listed for CCOC(=O)OC(C)OC(=O)CNC(=O)[C@@H](CSSC[C@H](CCSC)NC(=O)OC(C)OC(=O)C(C)C)Cc1ccccc1 (stereo partly drawn) ?
Reply: 30

---

- Tested on: Mus musculus
- assay.details: Analgesic activity in OF1 mouse assessed as decrease in hindpaw licking at 50 mg/kg ,po administered 150 mins prior to formalin challenge by formalin test
- Format: functional
- Set-up: scale not given: the % may be the effect or the level left
For each entry below, report its Activity value.
Field format: number, assumed %, no unit text.

Ask: What value of measured Activity is listed for CCOC(=O)OC(C)OC(=O)CNC(=O)[C@@H](CSSC[C@H](CC[S+](C)[O-])NC(=O)OC(C)OC(=O)C(C)C)Cc1ccccc1 (some centres undefined) ?
Reply: 38

Ask: What value of measured Activity is listed for CSCC[C@@H](CSSC[C@@H](Cc1ccccc1)C(=O)NCC(=O)OCc1ccccc1)NC(=O)OC(C)OC(=O)C(C)C (some centres undefined) ?
Reply: 26

Ask: What value of measured Activity is listed for CC(OC(=O)N[C@@H](CC[S+](C)[O-])CSSC[C@@H](Cc1ccccc1)C(=O)NCC(=O)OCc1ccccc1)OC(=O)C(C)C (some centres undefined) ?
Reply: 38

Ask: What value of measured Activity is listed for CC(OC(=O)N[C@@H](CC[S+](C)[O-])CSSC[C@@H](Cc1ccccc1)C(=O)NCC(=O)O)OC(=O)C(C)C (some centres undefined) ?
Reply: 38

---

- system.under.test: Aminopeptidase N (Homo sapiens, UniProt P15144)
- Sequence (P15144 whole entry): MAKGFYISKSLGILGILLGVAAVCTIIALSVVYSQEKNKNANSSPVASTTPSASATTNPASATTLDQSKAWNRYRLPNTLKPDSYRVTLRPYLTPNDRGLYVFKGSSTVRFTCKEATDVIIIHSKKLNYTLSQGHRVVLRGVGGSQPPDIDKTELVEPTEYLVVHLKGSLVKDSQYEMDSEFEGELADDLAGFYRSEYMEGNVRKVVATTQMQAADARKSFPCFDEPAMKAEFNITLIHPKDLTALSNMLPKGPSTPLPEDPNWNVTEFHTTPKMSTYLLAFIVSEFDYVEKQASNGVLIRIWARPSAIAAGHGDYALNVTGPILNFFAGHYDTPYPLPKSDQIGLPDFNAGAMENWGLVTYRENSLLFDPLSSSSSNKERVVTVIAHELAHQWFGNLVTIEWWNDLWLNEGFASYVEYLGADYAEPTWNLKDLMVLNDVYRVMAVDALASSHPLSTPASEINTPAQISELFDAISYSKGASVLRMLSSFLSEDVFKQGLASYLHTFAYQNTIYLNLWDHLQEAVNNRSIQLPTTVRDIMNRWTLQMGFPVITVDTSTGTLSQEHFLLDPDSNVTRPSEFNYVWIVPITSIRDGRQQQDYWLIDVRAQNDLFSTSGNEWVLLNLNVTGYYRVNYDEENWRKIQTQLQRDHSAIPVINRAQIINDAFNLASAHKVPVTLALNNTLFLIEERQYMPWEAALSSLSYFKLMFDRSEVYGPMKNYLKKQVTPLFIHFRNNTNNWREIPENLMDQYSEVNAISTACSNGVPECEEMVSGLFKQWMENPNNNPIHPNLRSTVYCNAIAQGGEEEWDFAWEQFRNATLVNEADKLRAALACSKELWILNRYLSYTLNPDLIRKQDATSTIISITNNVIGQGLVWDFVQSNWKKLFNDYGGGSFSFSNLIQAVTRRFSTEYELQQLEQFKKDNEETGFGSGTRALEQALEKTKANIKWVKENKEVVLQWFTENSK
- assay.details: Inhibition of recombinant human Aminopeptidase N using L-Ala-beta-NA as substrate preincubated for 30 mins followed by substrate addition measured after 30 mins by fluorometry
pKi: −log10 of the molar value.
recorded.metric: pKi

Ask: What value of measured pKi is listed for O=C(O)CNC(=O)C(CS)Cc1ccccc1 (configuration not stated) [THIORPHAN] ?
Reply: < 5.00

Ask: What value of measured pKi is listed for "O=C(O)C[C@H](NC(=O)C1(CS)CCCC1)C(=O)O" ?
Reply: < 5.00
